Activity overview
# measured-target: Protein cereblon/Son of sevenless homolog 1 (Homo sapiens, UniProt Q07889+Q96SW2)
# Sequence (Q07889 whole entry, looked up): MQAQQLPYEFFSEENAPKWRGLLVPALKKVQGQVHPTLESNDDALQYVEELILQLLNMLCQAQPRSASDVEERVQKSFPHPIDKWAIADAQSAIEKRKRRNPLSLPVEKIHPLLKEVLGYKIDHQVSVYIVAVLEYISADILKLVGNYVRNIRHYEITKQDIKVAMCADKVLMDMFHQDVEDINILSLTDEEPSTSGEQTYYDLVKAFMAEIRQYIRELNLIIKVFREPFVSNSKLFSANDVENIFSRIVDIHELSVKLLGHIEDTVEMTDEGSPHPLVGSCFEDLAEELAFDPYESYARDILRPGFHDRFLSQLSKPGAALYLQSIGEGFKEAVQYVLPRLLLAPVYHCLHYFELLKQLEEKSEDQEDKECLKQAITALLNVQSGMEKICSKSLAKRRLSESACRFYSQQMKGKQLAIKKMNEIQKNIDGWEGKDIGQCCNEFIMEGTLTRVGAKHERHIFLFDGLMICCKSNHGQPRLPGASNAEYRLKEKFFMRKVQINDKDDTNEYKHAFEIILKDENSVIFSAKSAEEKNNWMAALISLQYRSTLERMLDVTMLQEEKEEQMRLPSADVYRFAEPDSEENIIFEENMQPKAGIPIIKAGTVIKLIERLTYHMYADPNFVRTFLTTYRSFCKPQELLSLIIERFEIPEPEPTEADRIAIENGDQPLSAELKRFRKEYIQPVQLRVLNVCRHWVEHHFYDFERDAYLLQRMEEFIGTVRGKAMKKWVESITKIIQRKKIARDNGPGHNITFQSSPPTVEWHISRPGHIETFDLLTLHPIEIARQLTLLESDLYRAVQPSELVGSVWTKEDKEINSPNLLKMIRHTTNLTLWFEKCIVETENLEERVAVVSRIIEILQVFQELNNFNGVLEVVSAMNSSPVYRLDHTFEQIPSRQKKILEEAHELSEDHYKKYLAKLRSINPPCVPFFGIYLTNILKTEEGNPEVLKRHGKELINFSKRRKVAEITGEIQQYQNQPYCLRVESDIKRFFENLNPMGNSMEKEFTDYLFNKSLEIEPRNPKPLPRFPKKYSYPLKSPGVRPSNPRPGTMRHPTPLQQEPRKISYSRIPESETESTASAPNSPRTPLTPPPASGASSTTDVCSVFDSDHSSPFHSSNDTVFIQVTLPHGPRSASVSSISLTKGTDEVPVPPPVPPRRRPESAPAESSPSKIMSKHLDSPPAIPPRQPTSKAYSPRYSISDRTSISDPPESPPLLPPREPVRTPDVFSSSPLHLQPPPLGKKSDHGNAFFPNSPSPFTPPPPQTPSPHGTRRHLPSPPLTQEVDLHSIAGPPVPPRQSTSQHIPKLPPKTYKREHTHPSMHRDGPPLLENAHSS
# Sequence (Q96SW2 whole entry, looked up): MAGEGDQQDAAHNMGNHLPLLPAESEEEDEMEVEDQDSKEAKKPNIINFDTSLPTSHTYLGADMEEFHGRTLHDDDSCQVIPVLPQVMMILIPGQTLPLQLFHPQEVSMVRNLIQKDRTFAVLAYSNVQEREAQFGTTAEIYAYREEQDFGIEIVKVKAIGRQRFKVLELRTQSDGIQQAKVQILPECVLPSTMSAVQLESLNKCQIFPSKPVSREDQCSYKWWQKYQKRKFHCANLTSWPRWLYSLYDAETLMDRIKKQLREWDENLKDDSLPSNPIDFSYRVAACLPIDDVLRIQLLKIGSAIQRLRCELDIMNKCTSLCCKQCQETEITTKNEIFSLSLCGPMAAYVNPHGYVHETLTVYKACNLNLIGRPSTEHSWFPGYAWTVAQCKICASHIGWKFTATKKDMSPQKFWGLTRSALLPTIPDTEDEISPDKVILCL
# assay-explanation: PROTAC activity at CRBN/SOS1 in human A549 cells assessed as protein degradation at 0.1 uM incubated for 24 hrs by immunoblot analysis relative to control
# Assay type: cell-based
Please reply with the bare figure in % and do not write the unit itself.

// known answers, use as guide
- compound: "COc1cc2nc(C)nc(N[C@H](C)c3cc(N)cc(C(F)(F)F)c3)c2cc1O[C@H]1CCN(C(=O)CCCNc2cccc3c2C(=O)N(C2CCC(=O)NC2=O)C3=O)C1 (stereo partly drawn)"
  unit-abbrev: "%"
  Activity: 0.9
- compound: "COc1cc2nc(C)nc(N[C@H](C)c3cc(N)cc(C(F)(F)F)c3)c2cc1O[C@H]1CCN(C(=O)CCCCCCCCCCC(=O)Nc2cccc3c2CN(C2CCC(=O)NC2=O)C3=O)C1 (stereo partly drawn)"
  unit-abbrev: "%"
  Activity: 0
- compound: "COc1cc2nc(C)nc(N[C@H](C)c3cc(N)cc(C(F)(F)F)c3)c2cc1O[C@H]1CCN(C(=O)CC(=O)Nc2ccc3c(c2)CN(C2CCC(=O)NC2=O)C3=O)C1 (stereo partly drawn)"
  unit-abbrev: "%"
  Activity: 0
- compound: "COc1cc2nc(C)nc(N[C@H](C)c3cc(N)cc(C(F)(F)F)c3)c2cc1O[C@H]1CCN(C(=O)CNc2cccc3c2C(=O)N(C2CCC(=O)NC2=O)C3=O)C1 (stereo partly drawn)"
  unit-abbrev: "%"
  Activity: 1.7
- compound: "COc1cc2nc(C)nc(N[C@H](C)c3cc(N)cc(C(F)(F)F)c3)c2cc1O[C@H]1CCN(C(=O)CCCCCCCCC(=O)Nc2ccc3c(c2)CN(C2CCC(=O)NC2=O)C3=O)C1 (stereo partly drawn)"
  unit-abbrev: "%"
  Activity: 0
- compound: "COc1cc2nc(C)nc(N[C@H](C)c3cc(N)cc(C(F)(F)F)c3)c2cc1O[C@H]1CCN(C(=O)CCC(=O)Nc2cccc3c2C(=O)N(C2CCC(=O)NC2=O)C3)C1 (stereo partly drawn)"
  unit-abbrev: "%"
  Activity: 0

Return Activity measured with Protein cereblon/Son of sevenless homolog 1 (Homo sapiens, UniProt Q07889+Q96SW2) given this compound: COc1cc2nc(C)nc(N[C@H](C)c3cc(N)cc(C(F)(F)F)c3)c2cc1O[C@H]1CCN(C(=O)CCCCCCCCCNc2ccc3c(c2)C(=O)N(C2CCC(=O)NC2=O)C3=O)C1 (stereo partly drawn) 0

Same thing, different compound: COc1cc2nc(C)nc(N[C@H](C)c3cc(N)cc(C(F)(F)F)c3)c2cc1O[C@H]1CCN(C(=O)CCCCCCCCC(=O)Nc2cccc3c2C(=O)N(C2CCC(=O)NC2=O)C3)C1 (stereo partly drawn) 6.4

###

# measured-target: Protein cereblon/Son of sevenless homolog 1 (Homo sapiens, UniProt Q07889+Q96SW2)
# assay-explanation: PROTAC activity at CRBN/SOS1 in human A549 cells assessed as protein degradation at 10 uM incubated for 24 hrs by immunoblot analysis relative to control
# Format: cell-based
Mark yes only for Activity values smaller than 9%; exact matches and larger values are no.

- molecule: "COc1cc2nc(C)nc(N[C@H](C)c3cc(N)cc(C(F)(F)F)c3)c2cc1O[C@H]1CCN(C(=O)CCC(=O)Nc2ccc3c(c2)C(=O)N(C2CCC(=O)NC2=O)C3)C1 (some centres not stated)"
  class-label: "no"
- molecule: "COc1cc2nc(C)nc(N[C@H](C)c3cc(N)cc(C(F)(F)F)c3)c2cc1O[C@H]1CCN(C(=O)CCCCCCC(=O)Nc2cccc3c2C(=O)N(C2CCC(=O)NC2=O)C3)C1 (some centres not stated)"
  class-label: "yes"
- molecule: "COc1cc2nc(C)nc(N[C@H](C)c3cc(N)cc(C(F)(F)F)c3)c2cc1O[C@H]1CCN(C(=O)CCCCC(=O)Nc2cccc3c2C(=O)N(C2CCC(=O)NC2=O)C3)C1 (some centres not stated)"
  class-label: "no"
- molecule: "COc1cc2nc(C)nc(N[C@H](C)c3cc(N)cc(C(F)(F)F)c3)c2cc1O[C@H]1CCN(C(=O)CCCCCCC(=O)Nc2ccc3c(c2)CN(C2CCC(=O)NC2=O)C3=O)C1 (some centres not stated)"
  class-label: "yes"

Strictly below 9%: is that where Activity of COc1cc2nc(C)nc(N[C@H](C)c3cc(N)cc(C(F)(F)F)c3)c2cc1O[C@H]1CCN(C(=O)CNc2cccc3c2C(=O)N(C2CCC(=O)NC2=O)C3=O)C1 (some centres not stated) sits? yes

Next entry: COc1cc2nc(C)nc(N[C@H](C)c3cc(N)cc(C(F)(F)F)c3)c2cc1O[C@H]1CCN(C(=O)CCCCC(=O)Nc2ccc3c(c2)C(=O)N(C2CCC(=O)NC2=O)C3)C1 (some centres not stated) no

For COc1cc2nc(C)nc(N[C@H](C)c3cc(N)cc(C(F)(F)F)c3)c2cc1O[C@H]1CCN(C(=O)CCCNc2cccc3c2C(=O)N(C2CCC(=O)NC2=O)C3=O)C1 (some centres not stated) then? yes

Queued: COc1cc2nc(C)nc(N[C@H](C)c3cc(N)cc(C(F)(F)F)c3)c2cc1O[C@H]1CCN(C(=O)CCCCCCCCC(=O)Nc2cccc3c2CN(C2CCC(=O)NC2=O)C3=O)C1 (some centres not stated) no

Can you handle COc1cc2nc(C)nc(N[C@H](C)c3cc(N)cc(C(F)(F)F)c3)c2cc1O[C@H]1CCN(C(=O)CCCCCCCCC(=O)Nc2cccc3c2C(=O)N(C2CCC(=O)NC2=O)C3)C1 (some centres not stated) next? no

###

# measured-target: Protein cereblon/Son of sevenless homolog 1 (Homo sapiens, UniProt Q07889+Q96SW2)
# assay-explanation: PROTAC activity at CRBN/SOS1 in human A549 cells assessed as protein degradation at 10 uM incubated for 24 hrs by immunoblot analysis relative to control
# Type: cell-based
Given measured Activity, output 1 if it is greater than or equal to 8% and -1 if not.

Examples from the recorded data:
- molecule: "COc1cc2nc(C)nc(N[C@H](C)c3cc(N)cc(C(F)(F)F)c3)c2cc1O[C@H]1CCN(C(=O)CCCCCCC(=O)Nc2cccc3c2CN(C2CCC(=O)NC2=O)C3=O)C1 (stereo partly drawn)"
  class-label: 1
- molecule: "COc1cc2nc(C)nc(N[C@H](C)c3cc(N)cc(C(F)(F)F)c3)c2cc1O[C@H]1CCN(C(=O)CCCCCCCC(=O)Nc2cccc3c2CN(C2CCC(=O)NC2=O)C3=O)C1 (stereo partly drawn)"
  class-label: 1
- molecule: "COc1cc2nc(C)nc(N[C@H](C)c3cc(N)cc(C(F)(F)F)c3)c2cc1O[C@H]1CCN(C(=O)CCCCCCCNc2cccc3c2C(=O)N(C2CCC(=O)NC2=O)C3=O)C1 (stereo partly drawn)"
  class-label: -1
- molecule: "COc1cc2nc(C)nc(N[C@H](C)c3cc(N)cc(C(F)(F)F)c3)c2cc1O[C@H]1CCN(C(=O)CCCCCCCCCCC(=O)Nc2cccc3c2CN(C2CCC(=O)NC2=O)C3=O)C1 (stereo partly drawn)"
  class-label: -1
- molecule: "COc1cc2nc(C)nc(N[C@H](C)c3cc(N)cc(C(F)(F)F)c3)c2cc1O[C@H]1CCN(C(=O)CCCCCCCCC(=O)Nc2ccc3c(c2)CN(C2CCC(=O)NC2=O)C3=O)C1 (stereo partly drawn)"
  class-label: 1

Please check the record COc1cc2nc(C)nc(N[C@H](C)c3cc(N)cc(C(F)(F)F)c3)c2cc1O[C@H]1CCN(C(=O)CCCCCCCCC(=O)Nc2ccc3c(c2)C(=O)N(C2CCC(=O)NC2=O)C3)C1 (stereo partly drawn) and state if its Activity is at or above 8%. -1

Follow-up item: COc1cc2nc(C)nc(N[C@H](C)c3cc(N)cc(C(F)(F)F)c3)c2cc1O[C@H]1CCN(C(=O)CCCCCCCCCNc2ccc3c(c2)C(=O)N(C2CCC(=O)NC2=O)C3=O)C1 (stereo partly drawn) -1

###

# measured-target: Protein cereblon/Son of sevenless homolog 1 (Homo sapiens, UniProt Q07889+Q96SW2)
# assay-explanation: PROTAC activity at CRBN/SOS1 in human A549 cells assessed as protein degradation at 1 uM incubated for 24 hrs by immunoblot analysis relative to control
# Format: cell-based
Activity values by entry
Expressed in %, but write only the number.

- compound: "COc1cc2nc(C)nc(N[C@H](C)c3cc(N)cc(C(F)(F)F)c3)c2cc1O[C@H]1CCN(C(=O)CCCCCCC(=O)Nc2cccc3c2C(=O)N(C2CCC(=O)NC2=O)C3)C1 (stereo partly drawn)"
  measured-target: "Protein cereblon/Son of sevenless homolog 1 (Homo sapiens, UniProt Q07889+Q96SW2)"
  unit-abbrev: "%"
  Activity: 0

# get_value(readout='Activity', item= COc1cc2nc(C)nc(N[C@H](C)c3cc(N)cc(C(F)(F)F)c3)c2cc1O[C@H]1CCN(C(=O)CCCCCCCCC(=O)Nc2cccc3c2CN(C2CCC(=O)NC2=O)C3=O)C1 (stereo partly drawn) ) 39.1

Now try COc1cc2nc(C)nc(N[C@H](C)c3cc(N)cc(C(F)(F)F)c3)c2cc1O[C@H]1CCN(C(=O)CCCCCCCCC(=O)Nc2ccc3c(c2)CN(C2CCC(=O)NC2=O)C3=O)C1 (stereo partly drawn) . 9.5
